Biological target: BTK^C481S (Homo sapiens (Human), UniProt Q06187, C481S)
Sequence (Q06187 whole entry C481S): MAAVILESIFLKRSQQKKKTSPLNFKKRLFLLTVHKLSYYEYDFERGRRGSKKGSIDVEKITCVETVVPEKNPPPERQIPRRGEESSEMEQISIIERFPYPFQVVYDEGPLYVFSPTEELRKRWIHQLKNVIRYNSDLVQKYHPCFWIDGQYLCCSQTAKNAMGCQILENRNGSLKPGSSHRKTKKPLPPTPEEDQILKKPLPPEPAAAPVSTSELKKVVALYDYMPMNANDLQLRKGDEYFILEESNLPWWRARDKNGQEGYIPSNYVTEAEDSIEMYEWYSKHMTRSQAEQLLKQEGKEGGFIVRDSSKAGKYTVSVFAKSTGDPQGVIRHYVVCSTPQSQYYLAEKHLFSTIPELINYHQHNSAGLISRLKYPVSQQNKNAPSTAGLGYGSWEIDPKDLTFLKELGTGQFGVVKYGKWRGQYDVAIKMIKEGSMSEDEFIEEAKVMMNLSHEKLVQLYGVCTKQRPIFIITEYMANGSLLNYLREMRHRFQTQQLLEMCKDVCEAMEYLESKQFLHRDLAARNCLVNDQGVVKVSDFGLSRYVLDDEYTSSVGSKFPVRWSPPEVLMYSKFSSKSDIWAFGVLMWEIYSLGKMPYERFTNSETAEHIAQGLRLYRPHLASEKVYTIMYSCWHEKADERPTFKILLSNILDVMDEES
Experiment: BTK^C481S binding affinity (TR-FRET, LanthaScreen)
Details: 5 h incubation
We begin with a simple list: items and their reported IC50.
resultType: IC50

substanceSmiles: COc1ccccc1C(=O)NCc1ccc(-c2nn([C@H]3C=C[C@H](n4ccnn4)C3)c3ncnc(N)c23)cc1
measuredTarget: BTK^C481S (Homo sapiens (Human), UniProt Q06187, C481S)
recordedMeasurement: ≤ 10 nM
//
substanceSmiles: COc1ccc(F)cc1C(=O)NCc1ccc(-c2nn(C(C)(C)C)c3ncnc(N)c23)cc1
measuredTarget: BTK^C481S (Homo sapiens (Human), UniProt Q06187, C481S)
recordedMeasurement: ≤ 10 nM
//
substanceSmiles: COc1ccc(F)cc1C(=O)NCc1ccc(-c2nn([C@H]3C=C[C@H](O)C3)c3ncnc(N)c23)cc1
measuredTarget: BTK^C481S (Homo sapiens (Human), UniProt Q06187, C481S)
recordedMeasurement: ≤ 10 nM

----------
Test system: OCI-Ly10 human DLBCL cells
Experiment: OCI-Ly10 anti-proliferative activity (Resazurin, 72 h)
Format: cell-based
Settings: Homo sapiens, OCI-Ly10, 72 h, read-out: Proliferation OCI-Ly10-IC50
pIC50: −log10 of the molar value.
We begin with a simple list: items and their reported pIC50.

compound: COc1ccccc1C(=O)NCc1ccc(-c2nn(C3CCCC(C(=O)N(C)C)C3)c3ncnc(N)c23)cc1 (stereo not shown)
pIC50: 6.00 to 7.00

compound: COCCNc1ncnc2c1c(-c1ccc(CNC(=O)c3ccccc3OC)cc1)nn2[C@H]1C=C[C@H](O)C1
pIC50: 6.00 to 7.00

compound: Nc1ncnc2c1c(-c1ccc(CNC(=O)c3nccc4ccccc34)cc1)nn2C1CCCC1
pIC50: 5.00 to 6.00

compound: COc1ccc(C)cc1C(=O)NCc1ccc(-c2nn(C3CCCC3)c3ncnc(N)c23)cc1F
pIC50: 6.00 to 7.00

compound: COc1ccc(F)cc1C(=O)NCc1ccc(-c2nn([C@H]3C=C[C@H](O)C3)c3ncnc(N)c23)cc1
pIC50: 5.00 to 6.00

compound: COc1ccccc1C(=O)NCc1ccc(-c2nn(C(C)(C)C)c3ncnc(N)c23)cc1
pIC50: 7.00 to 8.00

compound: COc1ccccc1C(=O)NC(C)c1ccc(-c2nn(C3CCCC3)c3ncnc(N)c23)cc1 (stereo not shown)
pIC50: 5.00 to 6.00

----------
Test system: OCI-Ly10 human DLBCL cells
Experiment: OCI-Ly10 anti-proliferative activity (Resazurin, 72 h)
Format: cell-based
Conditions: Homo sapiens, OCI-Ly10, 72 h, read-out: Proliferation OCI-Ly10-IC50
pIC50: −log10 of the molar value.
We begin with a simple list: items and their reported pIC50.

compound: COc1ccccc1C(=O)NCc1ccc(-c2nn([C@H]3C=C[C@H](O)C3)c3ncnc(N)c23)cc1
pIC50: 6.00 to 7.00
--
compound: COc1ccccc1C(=O)NCc1ccc(-c2nn(C3CCCO3)c3ncnc(N)c23)cc1 (stereo not drawn)
pIC50: 6.00 to 7.00
--
compound: Nc1ncnc2c1c(-c1ccc(CNC(=O)c3ccccc3F)cc1)nn2C1CCCC1
pIC50: 5.00 to 6.00
--
compound: COc1ccccc1C(=O)NCc1ccc(-c2nn(C3CCCOC3)c3ncnc(N)c23)cc1 (stereo not drawn)
pIC50: 7.00 to 8.00
--
compound: COc1ccccc1C(=O)NCc1ccc(-c2nn([C@@H]3CC[C@H](O)C3)c3ncnc(N)c23)cc1 (relative stereo)
pIC50: 7.00 to 8.00
--
compound: COc1ccccc1C(=O)NCc1ccc(-c2nn(C3CC4CC4C3)c3ncnc(N)c23)cc1 (stereo not drawn)
pIC50: 7.00 to 8.00
--
compound: COc1ccccc1C(=O)NCc1ccc(-c2nn(C3CCOCC3)c3ncnc(N)c23)cc1
pIC50: 6.00 to 7.00
--
compound: CCOC(=O)C1CCCC(n2nc(-c3ccc(CNC(=O)c4ccccc4OC)cc3)c3c(N)ncnc32)C1 (stereo not drawn)
pIC50: 6.00 to 7.00
--
compound: COc1ccccc1C(=O)NCc1ccc(-c2nn(C3CCC(=O)CC3)c3ncnc(N)c23)cc1
pIC50: 6.00 to 7.00
--
compound: COc1ncccc1C(=O)NCc1ccc(-c2nn(C3CCCC3)c3ncnc(N)c23)cc1
pIC50: 6.00 to 7.00
--
compound: COCCO[C@H]1C=C[C@H](n2nc(-c3ccc(CNC(=O)c4ccccc4OC)cc3)c3c(N)ncnc32)C1
pIC50: 6.00 to 7.00
--
compound: COc1ccccc1C(=O)NCc1ccc(-c2nn([C@H]3C=C[C@H](OC(C)=O)C3)c3ncnc(N)c23)cc1
pIC50: 7.00 to 8.00

----------
Target: EGFR (Homo sapiens (Human), UniProt P00533)
Sequence (P00533 25-1210): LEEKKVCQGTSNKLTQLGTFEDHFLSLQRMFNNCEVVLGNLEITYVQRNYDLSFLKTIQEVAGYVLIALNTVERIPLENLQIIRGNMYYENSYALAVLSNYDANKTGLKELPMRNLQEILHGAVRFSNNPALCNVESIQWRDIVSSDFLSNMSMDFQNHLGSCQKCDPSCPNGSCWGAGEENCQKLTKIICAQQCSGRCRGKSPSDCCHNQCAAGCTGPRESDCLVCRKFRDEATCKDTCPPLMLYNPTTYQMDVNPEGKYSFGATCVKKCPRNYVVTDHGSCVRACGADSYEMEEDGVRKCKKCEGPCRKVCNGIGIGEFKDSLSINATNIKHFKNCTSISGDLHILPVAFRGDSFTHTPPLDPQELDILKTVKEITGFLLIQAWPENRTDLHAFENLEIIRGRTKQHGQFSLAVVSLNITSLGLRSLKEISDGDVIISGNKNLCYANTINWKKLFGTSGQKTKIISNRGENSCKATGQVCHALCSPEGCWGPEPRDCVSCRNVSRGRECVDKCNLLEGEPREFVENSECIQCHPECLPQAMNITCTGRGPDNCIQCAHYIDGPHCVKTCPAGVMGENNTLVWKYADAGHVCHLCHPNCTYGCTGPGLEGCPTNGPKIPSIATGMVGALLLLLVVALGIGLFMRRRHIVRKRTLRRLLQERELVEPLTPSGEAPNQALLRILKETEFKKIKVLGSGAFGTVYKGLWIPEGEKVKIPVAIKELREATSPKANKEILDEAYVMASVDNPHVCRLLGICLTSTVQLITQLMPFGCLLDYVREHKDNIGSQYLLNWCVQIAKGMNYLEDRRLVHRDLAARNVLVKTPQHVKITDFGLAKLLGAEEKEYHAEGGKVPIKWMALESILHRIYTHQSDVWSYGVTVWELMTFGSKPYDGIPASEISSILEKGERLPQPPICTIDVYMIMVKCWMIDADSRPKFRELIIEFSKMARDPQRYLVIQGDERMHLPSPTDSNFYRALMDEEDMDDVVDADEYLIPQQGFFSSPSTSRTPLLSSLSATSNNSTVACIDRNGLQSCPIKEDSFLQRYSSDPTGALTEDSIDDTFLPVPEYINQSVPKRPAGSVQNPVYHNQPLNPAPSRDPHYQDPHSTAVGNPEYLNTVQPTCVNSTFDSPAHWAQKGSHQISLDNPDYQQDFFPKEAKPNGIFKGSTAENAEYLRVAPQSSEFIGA
Experiment: EGFR binding affinity (TR-FRET, LanthaScreen)
Details: 5 h incubation
We begin with a simple list: items and their reported IC50.

compound: COc1cc(Cl)ccc1C(=O)NCc1ccc(-c2nn(C3CCCC3)c3ncnc(N)c23)cc1
IC50: > 10000 nM

compound: COc1ccccc1C(=O)NCc1ccc(-c2nn(C(C)C)c3ncnc(N)c23)cc1
IC50: 1000 to 10000 nM

compound: CC(C)c1ccccc1C(=O)NCc1ccc(-c2nn(C3CCCC3)c3ncnc(N)c23)cc1
IC50: 1000 to 10000 nM

compound: Nc1ncnc2c1c(-c1ccc(CNC(=O)c3ccccc3OC(F)(F)F)cc1)nn2C1CCCC1
IC50: 100 to 1000 nM

compound: COc1ccccc1C(=O)NCc1ccc(-c2nn(C3CCC(O)CC3)c3ncnc(N)c23)cc1 (single isomer, unassigned) [Example 23-isomer1]
IC50: 100 to 1000 nM

Sourced from patent US10399989B2
